The sequences listed here are annotated with their phosphorylation enrichment.
target: FGFR3 (UniProt P22607); test: phosphorylation enrichment, bacterial display (enrichment ratio); higher = better substrate or ligand; peptides without Tyr show the background;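 note: 11-residue human phosphosite peptides and single-mutation variants displayed on the E. coli surface, counted by deep sequencing, each peptide's frequency after selection divided by its frequency in the unselected input library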;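 note: frequency after pTyr selection over input frequency; kinase dosed for 20-30% of maximal phosphorylation in three min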
Sequence (P22607 whole entry, looked up): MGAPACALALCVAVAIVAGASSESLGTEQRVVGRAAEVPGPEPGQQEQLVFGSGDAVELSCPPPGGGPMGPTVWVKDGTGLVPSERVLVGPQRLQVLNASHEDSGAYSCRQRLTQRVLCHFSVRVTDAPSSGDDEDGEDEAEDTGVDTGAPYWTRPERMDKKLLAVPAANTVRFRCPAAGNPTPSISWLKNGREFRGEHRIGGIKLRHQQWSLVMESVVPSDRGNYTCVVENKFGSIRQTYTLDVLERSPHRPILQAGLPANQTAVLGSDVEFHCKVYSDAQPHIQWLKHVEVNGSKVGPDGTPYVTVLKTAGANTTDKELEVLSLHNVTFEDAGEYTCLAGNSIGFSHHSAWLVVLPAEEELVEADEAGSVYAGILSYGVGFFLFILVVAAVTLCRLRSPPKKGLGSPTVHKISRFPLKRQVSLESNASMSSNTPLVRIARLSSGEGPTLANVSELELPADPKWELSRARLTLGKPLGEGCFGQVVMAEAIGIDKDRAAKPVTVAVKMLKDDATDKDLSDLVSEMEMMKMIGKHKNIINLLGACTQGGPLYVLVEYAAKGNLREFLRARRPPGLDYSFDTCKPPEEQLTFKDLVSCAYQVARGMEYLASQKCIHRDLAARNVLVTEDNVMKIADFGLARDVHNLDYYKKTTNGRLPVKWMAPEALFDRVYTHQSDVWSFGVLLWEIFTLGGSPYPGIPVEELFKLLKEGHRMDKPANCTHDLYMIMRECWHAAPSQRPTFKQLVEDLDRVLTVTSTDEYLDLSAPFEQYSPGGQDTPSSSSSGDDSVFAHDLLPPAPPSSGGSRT
Reply with the value as a number alone.

Previously resolved entries follow.
INSERT INTO assay_data (sequence_input, result_number) VALUES
  ('AVVEPYNSILT [TUBA1A_Y185]', 0.496),
  ('QDRTFYERVRT [SPEN_Y633_S635R_YF]', 0.441),
  ('RRERLYGGGGG [FUS_Y526_P525L]', 0.545);

Would you kindly look at the next entry?
Prompt line: Quote FGFR3 (UniProt P22607) phosphorylation enrichment for entry YIPFRYPKEFQ [IDS_Y234_H229Y] .
Response line: 0.658

* * *

molecular target: Fyn (UniProt P06241); experiment: phosphorylation enrichment, bacterial display (enrichment ratio); higher = better substrate or ligand; peptides without Tyr show the background
Sequence (P06241 whole entry, looked up): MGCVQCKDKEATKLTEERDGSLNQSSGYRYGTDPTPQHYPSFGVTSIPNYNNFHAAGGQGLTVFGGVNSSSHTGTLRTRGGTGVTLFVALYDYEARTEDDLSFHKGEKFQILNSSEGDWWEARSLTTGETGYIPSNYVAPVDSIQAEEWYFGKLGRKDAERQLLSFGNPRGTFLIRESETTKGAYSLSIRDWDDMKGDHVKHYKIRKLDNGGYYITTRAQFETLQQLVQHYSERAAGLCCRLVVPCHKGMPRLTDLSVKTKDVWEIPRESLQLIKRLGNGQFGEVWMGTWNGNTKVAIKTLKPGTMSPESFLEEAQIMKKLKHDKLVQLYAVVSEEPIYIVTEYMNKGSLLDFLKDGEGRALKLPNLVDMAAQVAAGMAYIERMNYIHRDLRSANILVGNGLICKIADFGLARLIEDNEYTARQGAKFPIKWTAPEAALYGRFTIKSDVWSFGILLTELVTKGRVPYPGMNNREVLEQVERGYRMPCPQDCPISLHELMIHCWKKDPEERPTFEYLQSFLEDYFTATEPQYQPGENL
endpoint: phosphorylation enrichment
Answer with the value's number alone.

Some solved cases for reference:
INSERT INTO results (sequence_input, result_number) VALUES
  ('MKGEFYRFLAE [YWHAG_Y131_D129E_YF]', 0.392),
  ('VGTKRYMASEV [ACVRL1_Y375_P378S]', 0.4),
  ('FGSLLYKFAFK [FANCD2_Y458_YF]', 0.306),
  ('GGDVIYKGFED [NFU1_Y194]', 3.25);

Prompt line: Fill in reported phosphorylation enrichment for this entry: EHIEFYELDKK [PMM2_Y145_R141H]
Response line: 0.566

Prompt line: Return the recorded phosphorylation enrichment value; entry: SFPSYYTSHVQ [NEFL_Y443]
Response line: 0.59

Prompt line: Give reported phosphorylation enrichment value for TSNQEYLYLSM [FGFR1_Y766_D768Y]
Response line: 2.08

Prompt line: Entry AKAEICEMRPL [COX10_Y97_Y97C] needs its phosphorylation enrichment filled in; supply it.
Response line: 0.389

Prompt line: # return recorded phosphorylation enrichment for entry KGELCYMHSRV [ABCD1_Y281_R280C]
Response line: 0.505

Prompt line: // fetch phosphorylation enrichment given entry MLNTNYHLPPS [MT-ATP8_Y33]
Response line: 0.384

Prompt line: In one line, give reported phosphorylation enrichment of the entry IITDFYVDMKF [MPP4_Y567_V562I_YF] .
Response line: 0.527

Prompt line: Assign phosphorylation enrichment to the following record: KVKPIYFHTQG [AR_Y916]
Response line: 0.371

Prompt line: Hello, please tell me recorded phosphorylation enrichment for this one: DQVEQYKKELE [LMNA_Y259]
Response line: 0.516

* * *

target: MERTK (UniProt Q12866); assay: phosphorylation enrichment, bacterial display (enrichment ratio); higher = better substrate or ligand; peptides without Tyr show the background
Sequence (Q12866 whole entry, looked up): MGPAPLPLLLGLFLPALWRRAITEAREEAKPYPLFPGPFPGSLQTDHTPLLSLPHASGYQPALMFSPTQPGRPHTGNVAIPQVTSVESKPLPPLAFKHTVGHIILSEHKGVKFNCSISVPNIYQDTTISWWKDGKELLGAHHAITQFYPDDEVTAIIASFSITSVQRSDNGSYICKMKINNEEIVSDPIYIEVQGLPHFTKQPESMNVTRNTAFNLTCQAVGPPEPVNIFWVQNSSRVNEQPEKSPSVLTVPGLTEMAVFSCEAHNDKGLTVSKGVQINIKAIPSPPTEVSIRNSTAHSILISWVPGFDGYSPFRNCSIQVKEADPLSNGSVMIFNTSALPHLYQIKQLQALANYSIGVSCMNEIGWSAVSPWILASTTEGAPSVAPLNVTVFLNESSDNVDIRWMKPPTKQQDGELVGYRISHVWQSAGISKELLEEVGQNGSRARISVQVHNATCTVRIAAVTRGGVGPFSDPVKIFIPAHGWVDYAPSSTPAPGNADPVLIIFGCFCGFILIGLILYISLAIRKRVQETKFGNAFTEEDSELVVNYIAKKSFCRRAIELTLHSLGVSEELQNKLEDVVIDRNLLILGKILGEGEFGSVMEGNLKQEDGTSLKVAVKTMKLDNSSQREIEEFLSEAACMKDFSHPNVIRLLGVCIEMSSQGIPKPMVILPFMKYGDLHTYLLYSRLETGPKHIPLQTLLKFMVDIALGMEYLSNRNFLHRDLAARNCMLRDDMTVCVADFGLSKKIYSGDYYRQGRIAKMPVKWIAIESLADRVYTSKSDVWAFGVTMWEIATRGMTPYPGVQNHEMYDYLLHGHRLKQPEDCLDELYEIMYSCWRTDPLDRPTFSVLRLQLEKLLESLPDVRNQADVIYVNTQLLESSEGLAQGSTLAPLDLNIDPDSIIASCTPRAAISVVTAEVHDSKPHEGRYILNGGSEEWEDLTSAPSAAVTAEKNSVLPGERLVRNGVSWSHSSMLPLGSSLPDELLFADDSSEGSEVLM
endpoint: phosphorylation enrichment

INSERT INTO assay_data (sequence_input, endpoint, result) VALUES
  ('FSPPYYHRNCM [HGD_Y334_R330S]', 'phosphorylation enrichment', 0.451),
  ('VGTKRYMASEV [ACVRL1_Y375_P378S]', 'phosphorylation enrichment', 0.389),
  ('QKMADYSNKLH [PDPR_Y104_Y109H]', 'phosphorylation enrichment', 0.429),
  ('MENFIYESMRY [CYP19A1_Y361]', 'phosphorylation enrichment', 2.31),
  ('CTTIHCNYMCN [TP53_Y234_Y234C]', 'phosphorylation enrichment', 0.395);

Prompt line: Hello, please tell me recorded phosphorylation enrichment for this one: FETVKYFNNER [ABCB7_Y345_YF]
Response line: 0.288

Prompt line: Supply measured phosphorylation enrichment of RNVFFYSFLLK [PTEN_Y178_Y174N_YF] in your reply.
Response line: 0.757

Prompt line: Specify phosphorylation enrichment for SGSIHYSCVPR [GLB1_Y57_R59C] and stop.
Response line: 0.517

Prompt line: Provide only the value of recorded phosphorylation enrichment for CTTIHYSFMCN [TP53_Y234_N235S_YF]
Response line: 0.843

* * *

molecular target: Fes (UniProt P07332); experiment: phosphorylation enrichment, bacterial display (enrichment ratio); higher = better substrate or ligand; peptides without Tyr show the background
Sequence (P07332 whole entry, looked up): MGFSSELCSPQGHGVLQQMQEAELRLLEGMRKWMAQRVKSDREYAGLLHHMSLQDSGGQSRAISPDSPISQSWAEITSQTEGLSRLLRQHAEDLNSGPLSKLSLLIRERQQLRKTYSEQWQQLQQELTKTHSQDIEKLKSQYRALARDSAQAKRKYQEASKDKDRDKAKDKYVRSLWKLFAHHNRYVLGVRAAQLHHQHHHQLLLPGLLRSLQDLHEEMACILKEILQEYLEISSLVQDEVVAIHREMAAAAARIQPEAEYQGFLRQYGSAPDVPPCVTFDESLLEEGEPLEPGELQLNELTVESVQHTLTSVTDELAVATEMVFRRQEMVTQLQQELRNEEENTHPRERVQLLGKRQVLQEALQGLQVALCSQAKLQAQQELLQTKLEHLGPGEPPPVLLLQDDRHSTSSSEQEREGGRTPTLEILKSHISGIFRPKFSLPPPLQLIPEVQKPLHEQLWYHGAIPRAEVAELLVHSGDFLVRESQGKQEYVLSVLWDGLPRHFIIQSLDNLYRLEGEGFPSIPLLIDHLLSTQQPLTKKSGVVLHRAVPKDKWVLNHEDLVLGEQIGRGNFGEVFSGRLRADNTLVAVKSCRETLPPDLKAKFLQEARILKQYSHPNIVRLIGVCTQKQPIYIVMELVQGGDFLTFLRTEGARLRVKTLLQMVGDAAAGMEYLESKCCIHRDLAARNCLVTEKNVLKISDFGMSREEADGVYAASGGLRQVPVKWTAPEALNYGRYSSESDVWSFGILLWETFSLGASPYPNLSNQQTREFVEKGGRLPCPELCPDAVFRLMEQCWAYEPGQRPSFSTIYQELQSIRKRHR
endpoint: phosphorylation enrichment
// keep it numeric: no unit symbol after the value

Prompt line: Answer with the recorded phosphorylation enrichment of SFPSYYTSHVQ [NEFL_Y443] only.
Response line: 0.914

Prompt line: Complete the entry with phosphorylation enrichment for TEVIWYKGDEE
Response line: 1.55

Prompt line: Fill in reported phosphorylation enrichment for this entry: LDFPEYDGVDR [CASQ1_Y43]
Response line: 2.01

Prompt line: Let me know recorded phosphorylation enrichment for KSVLVYRNGDP [DCDC2_Y22] , thanks.
Response line: 0.617

Prompt line: Return phosphorylation enrichment for the following sequence: KFVVVYFREID [IL17RB_Y447_YF]
Response line: 1.27

Prompt line: Identify phosphorylation enrichment associated with the sequence EKKKKYMLPLD [DNM2_Y563_E560K]
Response line: 0.951

Prompt line: Report phosphorylation enrichment, nothing else, for this sequence: LGGAMYYLEAD [PKHD1_Y452_E457D]
Response line: 1.48

Prompt line: Provide measured phosphorylation enrichment value, entry: CTTIHYNYVCN [TP53_Y234_M237V]
Response line: 0.949

Prompt line: Please indicate phosphorylation enrichment recorded for RDMNACIRPSP [MMAA_Y207_Y207C]
Response line: 1.29

* * *

system: Fer (mouse); experiment: phosphorylation enrichment, bacterial display (enrichment ratio); higher = better substrate or ligand; peptides without Tyr show the background
endpoint: phosphorylation enrichment
Reply with the value as a number alone.

INSERT INTO assay_data (sequence_input, result_number) VALUES
  ('CWAVKYLQMVG [AVPR2_Y117_R113W]', 0.504),
  ('LFSGDCFRIQG [DDR2_Y740_Y740C_YF]', 0.468),
  ('FKWAVYCIIGR [NUP93_Y391_R388W_YF]', 1.02),
  ('MHDSNCVSKGS [PDGFRA_Y849_Y849C]', 0.388);

Prompt line: Please supply the value of reported phosphorylation enrichment for the item FTDGQYWIRGR [ACSF3_Y466_K462T]
Response line: 0.408

Prompt line: Consider the sequence ADDSYYTARSA [ZAP70_Y493] and give its recorded phosphorylation enrichment.
Response line: 0.518

* * *

Entries and their measured phosphorylation enrichment follow.
molecular target: Hck (UniProt P08631); assay: phosphorylation enrichment, bacterial display (enrichment ratio); higher = better substrate or ligand; peptides without Tyr show the background
Sequence (P08631 whole entry, looked up): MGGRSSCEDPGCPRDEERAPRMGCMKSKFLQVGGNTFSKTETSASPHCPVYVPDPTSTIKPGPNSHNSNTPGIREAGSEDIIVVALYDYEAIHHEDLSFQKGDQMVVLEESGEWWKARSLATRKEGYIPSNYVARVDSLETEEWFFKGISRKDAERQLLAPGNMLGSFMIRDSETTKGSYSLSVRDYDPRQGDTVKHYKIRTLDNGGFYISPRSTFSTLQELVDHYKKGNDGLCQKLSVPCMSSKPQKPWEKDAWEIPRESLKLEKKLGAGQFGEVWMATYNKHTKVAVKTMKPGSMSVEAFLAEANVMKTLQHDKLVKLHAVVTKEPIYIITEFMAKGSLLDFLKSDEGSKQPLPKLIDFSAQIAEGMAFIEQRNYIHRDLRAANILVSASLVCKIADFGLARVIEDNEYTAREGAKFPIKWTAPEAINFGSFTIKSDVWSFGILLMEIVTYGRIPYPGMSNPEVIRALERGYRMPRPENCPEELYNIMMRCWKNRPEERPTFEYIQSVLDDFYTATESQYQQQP
API note: the answer field is a bare number with no unit suffix.

INSERT INTO measurements (sequence_input, target_under_test, result_number) VALUES
  ('KSVEEYANCHL [TF_Y593_P589S]', 'Hck (UniProt P08631)', 0.486);

We next turn to a different sequence, shown below.
Prompt line: Determine its reported phosphorylation enrichment: IKNSGYISRFL [EIF2AK3_Y585_YF]
Response line: 0.379

* * *

tested on: AncSZ; assay: phosphorylation enrichment, bacterial display (enrichment ratio); higher = better substrate or ligand; peptides without Tyr show the background
endpoint: phosphorylation enrichment
Write no unit; give the number alone.

Illustrative cases are given below, each with its answer.
INSERT INTO measurements (sequence_input, result_number) VALUES
  ('VNFQPYRKHKF [TEX37_Y28_D24N_YF]', 0.546),
  ('TSIGNYYKPWF [DHCR24_Y299_N294T]', 1),
  ('CEHRGSLYLAI [TEK_Y897_Y897S]', 1.13),
  ('KGRAGYTTVAV [RET_Y752]', 0.46),
  ('MKDLTYSSLCF [ALOX5_Y446_A447S]', 1.48),
  ('PGIRMYRVQYN [LRFN1_Y454_Q455R]', 0.759),
  ('ALARKYHGGGG [HBB_Y146_H144R]', 0.372),
  ('FSNPAYFVLEG [INPPL1_Y986_N982S_YF]', 1.01),
  ('DLEKTYNTYRS [B4GALNT2_Y538_A533D]', 0.848),
  ('FTRNYYVRAVL [CYBA_Y88]', 1.19);

Prompt line: Quickly give me recorded phosphorylation enrichment for HAVFVYDICHV [TWNK_Y508_YF]
Response line: 1.88

Prompt line: State its phosphorylation enrichment: EKKKKYMLPLD [DNM2_Y563_E560K]
Response line: 0.594

* * *

tested on: AncSZ; test: phosphorylation enrichment, bacterial display (enrichment ratio); higher = better substrate or ligand; peptides without Tyr show the background
Listing of entries alongside the reported phosphorylation enrichment.

// solved cases for phosphorylation enrichment follow
INSERT INTO assay_data (sequence_input, result) VALUES
  ('ALMGLYHGQVL [HADHA_Y343]', 0.605),
  ('CASQLCPRHKH [DCTN4_Y263_Y263C]', 0.477),
  ('MKALGYFAVGT [OPA1_Y498_V502G]', 0.798);

Prompt line: Recall the reported phosphorylation enrichment of MARDIYQASYY [LTK_Y672_R673Q] when tested on AncSZ.
Response line: 1.04

Prompt line: Specify phosphorylation enrichment for MKGEFYRFLAE [YWHAG_Y131_D129E_YF] , system AncSZ.
Response line: 0.77

Prompt line: Please indicate recorded phosphorylation enrichment of FGGTVCHSPVS [PRC1_Y511_Y511C] measured with AncSZ.
Response line: 0.688

Prompt line: Write down the reported phosphorylation enrichment (system: AncSZ) of LGRKLYSIAAP [ABHD12_Y345]
Response line: 1.3

Prompt line: # lookup: AncSZ phosphorylation enrichment, key = CEQELYSQLVY [WAS_Y102_W97C]
Response line: 1.9
